Parameter: TGI. Scope: all listed entries.
# System: MALME-3M melanoma
# TEST_PROTOCOL: NCI tumour cell line growth inhibition, 48 h

# example entries with known answers
molecule=CCCSc1ccc2[nH]c(N3C(=O)/C(=C/c4ccccc4)N=C3c3ccccc3)cc2c1 val="> 50 µM"
molecule=c1cncc(CNCc2cccnc2)c1 val="> 100 µM"
molecule="O=C1CC(c2[nH]nc3ccccc23)C(=O)N1c1ccccc1 (stereo not drawn)" val="> 100 µM"
molecule="CC(C)Cc1ccc(C(C)CC2=CCC(CN(C)C)C2=O)cc1 (stereo not drawn)" val="13.1 µM"
molecule=Cc1nc2ccc(NC(=O)CCNC(=O)CCCc3ccc(CC(C(=O)O)C(=O)O)cc3)cc2s1 val="> 100 µM"
molecule=Cc1ccc(S(=O)(=O)c2ccccc2[N+](=O)[O-])cc1 val="> 100 µM"

Exercise: Which TGI value belongs to N#Cc1cc2c(n(C3OC(CO)C(O)C(O)C3O)c1=S)CCCCCC2 (stereo not drawn) ?
Key: > 100 µM

Exercise: Entry to check: CC(C)(C)n1c(=O)[nH]c(=O)n1C(C)(C)C
Key: > 100 µM
